Target: IL-21 (species not stated in the assay) (Homo sapiens (Human), UniProt Q9HBE4 25-162, Biotinylated in the competition ELISA of paragraph 259 (sites not given); unlabelled in the other results.)
Sequence (Q9HBE4 25-162 limits assumed): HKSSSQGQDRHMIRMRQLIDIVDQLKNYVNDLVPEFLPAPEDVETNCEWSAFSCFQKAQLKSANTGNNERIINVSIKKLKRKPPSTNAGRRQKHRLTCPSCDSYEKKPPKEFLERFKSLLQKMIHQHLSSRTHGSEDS
Test: cell-based or functional assay
Assay metric: maximal inhibition in pSTAT3 assay (%)

{"Binder": "murine monoclonal antibody 9H10 (antibody, V domains shown, also called 9H10.1) VH: EVQLQQFGAEVVKPGASVKMSCKASGYTFTDYNMNWVKQSHEKSLEWIGDIHPKFHSTNYNQKFKGKATLTIDTSSSTAYMELRNLTSEDTAVYYCARVGNYVYFVMDYWGQGTSVTVSS VL: SIVMTQTPKFLLVSAGDRVTITCKASQSVSNDVAWYQQKPGQSPKLLIYYASNRYTGVPDRFSGSGYGTDFTFTISTVQAEDLAVYFCQQDYTSPWTFGGGTKLEIK", "Quantitative result": 100}
{"Binder": "murine monoclonal antibody 8B6 (antibody, V domains shown, also called 8B6.1) VH: EVQLVESGGGSVKPGGSLKLSCAASGLTFSHYYMYWVRQTPEKRLEWVAIISDGGDYTHYSDSVKGRFTISRDNAKNNLYLQMSSLQSEDTAMYYCAGDYGYGYEGWFAYWGQGTLVTVST VL: DIVMTQSQKFMSTSVGDRVSVTCKASQNVDTYVAWYQQKPGQSPKALIYSTSYRYSGVPDRFTGSGSGTDFTLTISNVQSEDLAEYFCQQYNSYPWTFGGGTKLEIK", "Quantitative result": 100}
{"Binder": "9F11-4 (antibody, IgG1, V domains shown) VH: EVQLVESGGGLVQPGGSLRLSCAASGFTFSDAWMDWVRQAPGKGLEWVAEIRSEADNHPTYYAESVKGRFTISRDDSKNSLYLQMNSLKTEDTAVYYCTEYDYEGFVHWGQGTLVTVSS VL: DIVMTQTPLSLSVTPGQPASISCRASKSVSTYGYSYMHWYLQKPGQPPQLLIYLASNLESGVPDRFSGSGSGTDFTLKISRVEAEDVGVYYCQHSRELPLTFGQGTKLEIK", "Quantitative result": 100}

Source listed as patent US20200164069A1.
